target: hERG (Homo sapiens, UniProt Q12809)
Sequence (Q12809 whole entry): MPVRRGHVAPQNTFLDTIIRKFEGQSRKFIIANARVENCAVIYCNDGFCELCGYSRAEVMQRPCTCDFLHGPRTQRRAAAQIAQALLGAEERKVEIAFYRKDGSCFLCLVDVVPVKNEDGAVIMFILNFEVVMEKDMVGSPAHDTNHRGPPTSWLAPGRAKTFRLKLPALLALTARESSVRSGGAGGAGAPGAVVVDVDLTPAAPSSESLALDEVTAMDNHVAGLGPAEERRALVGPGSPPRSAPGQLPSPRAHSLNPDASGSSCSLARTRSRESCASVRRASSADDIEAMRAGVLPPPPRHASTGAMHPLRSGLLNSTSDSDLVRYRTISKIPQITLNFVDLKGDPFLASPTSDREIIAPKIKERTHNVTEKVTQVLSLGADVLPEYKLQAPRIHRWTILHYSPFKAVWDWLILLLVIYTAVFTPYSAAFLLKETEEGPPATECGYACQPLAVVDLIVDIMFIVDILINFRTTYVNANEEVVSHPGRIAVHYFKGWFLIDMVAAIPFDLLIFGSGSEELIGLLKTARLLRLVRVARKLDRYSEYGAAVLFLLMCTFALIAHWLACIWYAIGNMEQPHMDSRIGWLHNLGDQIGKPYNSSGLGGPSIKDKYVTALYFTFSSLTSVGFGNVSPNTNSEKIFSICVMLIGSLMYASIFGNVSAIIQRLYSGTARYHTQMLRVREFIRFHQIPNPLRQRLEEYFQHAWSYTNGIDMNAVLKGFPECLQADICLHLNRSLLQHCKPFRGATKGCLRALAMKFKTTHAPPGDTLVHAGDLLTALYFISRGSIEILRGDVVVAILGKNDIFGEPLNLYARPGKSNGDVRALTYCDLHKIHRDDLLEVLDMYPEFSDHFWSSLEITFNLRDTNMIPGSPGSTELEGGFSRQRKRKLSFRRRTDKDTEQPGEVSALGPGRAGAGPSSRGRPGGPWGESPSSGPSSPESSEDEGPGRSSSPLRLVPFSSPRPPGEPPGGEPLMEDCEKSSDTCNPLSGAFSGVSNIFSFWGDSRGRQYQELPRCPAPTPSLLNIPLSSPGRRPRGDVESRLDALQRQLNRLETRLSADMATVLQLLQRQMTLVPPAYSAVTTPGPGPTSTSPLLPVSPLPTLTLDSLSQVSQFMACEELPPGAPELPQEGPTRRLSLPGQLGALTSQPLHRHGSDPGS
measurement.notes: cell-based
settings: (-LOG10(IC50), µM)
Counter-ions that a name gives are not always drawn.
// NB: equality with 20 µM counts as not satisfied; only IC50 strictly below is satisfied

Reference set (8 entries):
> print(dat)
                                   molecule            cat
1                 Cc1ccc(S(=O)(=O)C(I)I)cc1  not satisfied
2     CC(=O)OC1(c2ccccc2)CCN(CCc2ccccc2)CC1  not satisfied
3  Cc1cc2c(OCC(CNC(C)(C)C)OC(=O)c3ccccc3)cccc2[nH]1 (stereo not drawn)  not satisfied
4  CCC(OC(C)=O)C(C[C@H](C)NC)(c1ccccc1)c1ccccc1 (mixture of isomers) [L-Î±lpha-Noracetylmethadol hydrochloride]      satisfied
5  COc1cc2c(cc1OC)-c1c/c(=N\c3c(C)cc(C)cc3C)n(C)c(=O)n1CC2 [Trequinsin hydrochloride]      satisfied
6  CN[C@H]1CC[C@@H](c2ccc(Cl)c(Cl)c2)c2ccc(S(N)(=O)=O)cc21      satisfied
7  CC1CCC(C(C)C)C(OC(=O)c2ccccc2N)C1 (stereo not drawn) [Menthyl anthranilate]  not satisfied
8         ClC(Cl)=C(c1ccc(Cl)cc1)c1ccccc1Cl  not satisfied

Shift focus to the following entry.
Regarding Cl[C@H]1[C@H](Cl)[C@@H](Cl)[C@H](Cl)[C@@H](Cl)[C@H]1Cl , kindly confirm whether its IC50 is beneath 20 µM.
not satisfied

---

IC50 by entry:
target: hERG (Homo sapiens)
measurement.notes: cell-based
settings: (-LOG10(IC50), µM)
Counter-ions that a name gives are not always drawn.
Reply with the number and its unit after it.

These recorded examples may help you get a feel for the data.
> print(dat)
                                    compound               target  value.reported
 1     CCCCCCCCCCCCCCCCCC[N+](C)(C)Cc1ccccc1  hERG (Homo sapiens)         4.41 µM
 2  CCOP(=S)(Oc1cnc(C(C)(C)C)nc1)OC(C)C (centres unmarked)  hERG (Homo sapiens)         43.6 µM
 3  CCN(CC)CCOC(=O)C(c1ccccc1)c1ccccc1 [Adiphenine hydrochloride]  hERG (Homo sapiens)         4.77 µM
 4  O=C(CCC1CCN(Cc2ccccc2)CC1)c1ccc2c(c1)NCCCC2 [Zanapezil fumerate]  hERG (Homo sapiens)         4.59 µM
 5  COC1CC(=C(c2cccs2)c2cccs2)C[N+](C)(C)C1 (centres unmarked) [Timepidium bromide]  hERG (Homo sapiens)         19.7 µM
 6  CC/C=C\CCOC(=O)c1ccccc1O [(3Z)-Hex-3-en-1-yl salicylate]  hERG (Homo sapiens)         34.7 µM
 7  CCc1cc(Cl)c(OC)c(C(=O)NC[C@@H]2CCCN2CC)c1O [Eticlopride hydrochloride]  hERG (Homo sapiens)         7.56 µM
 8  Cc1ccc(C=C2C(=O)C3(C)CCC2C3(C)C)cc1 (centres unmarked)  hERG (Homo sapiens)         30.7 µM
 9           CCOC(=O)NCCOc1ccc(Oc2ccccc2)cc1  hERG (Homo sapiens)         45.3 µM
10  CCN(CC)CCOC(=O)C(Cc1cccc2ccccc12)CC1CCCO1 (centres unmarked) [Nafronyl oxalate]  hERG (Homo sapiens)         8.99 µM

Sure, the documented IC50 for CCCCOc1cc(C(=O)NCCN(CC)CC)c2ccccc2n1 is 6.74 µM

---

target: hERG (Homo sapiens, UniProt Q12809)
measurement.notes: in vitro
settings: fluxor ii thallium influx herg, (-LOG10(IC50), µM)
measure.name: IC50 (µM)
API: value field is a number in µM; no unit string.

> print(dat)
                                   compound  measure.name  unit.label  value.reported
1  C=C1C(CCl)(CCl)C2(Cl)C(Cl)C(Cl)C1(Cl)C2(Cl)Cl (centres unmarked) [Toxaphene]          IC50          µM            35.6

Tested system hERG (Homo sapiens, UniProt Q12809); IC50 recorded for CCCCCCCCCCCC[N+](C)(C)Cc1ccccc1 [Benzyldodecyldimethylammonium bromide] was 1.25

---

target: hERG (Homo sapiens, UniProt Q12809)
measurement.notes: cell-based
settings: (-LOG10(IC50), µM)
Counter-ions that a name gives are not always drawn.
measure.name: IC50 (µM)
API: value field is a number in µM; no unit string.

> print(dat)
                                    molecule                               target  measure.name  unit.label  value.reported
 1  CCCCCCCC[n+]1ccn(C)c1 [1-Methyl-3-octylimidazolium chloride]  hERG (Homo sapiens, UniProt Q12809)          IC50          µM            19.4
 2                     CCCCCCCC[n+]1ccn(C)c1  hERG (Homo sapiens, UniProt Q12809)          IC50          µM            21.2
 3  CC[N+]1(C)CCCC1 [1-Ethyl-1-methylpyrrolidinium iodide]  hERG (Homo sapiens, UniProt Q12809)          IC50          µM            19.5
 4            Cc1cc(O)c2ccccc2c1O [Menadiol]  hERG (Homo sapiens, UniProt Q12809)          IC50          µM            2.68
 5  CCCCCCCCCCCCCCCC[N+](C)(C)C [Hexadecyltrimethylammonium bromide]  hERG (Homo sapiens, UniProt Q12809)          IC50          µM            20.1
 6  Nc1ccc(Cl)cc1C(=O)c1ccccc1 [2-Amino-5-chlorobenzophenone]  hERG (Homo sapiens, UniProt Q12809)          IC50          µM            50.9
 7  COC(=O)c1cc(Oc2ccc(Cl)cc2Cl)ccc1[N+](=O)[O-] [Bifenox]  hERG (Homo sapiens, UniProt Q12809)          IC50          µM            23.6
 8  COC(=O)CSc1cc(N=c2sc(=O)n3n2CCCC3)c(F)cc1Cl [Fluthiacet-methyl]  hERG (Homo sapiens, UniProt Q12809)          IC50          µM            38.9
 9  CCOc1cc(C(C)(C)C)ccc1C1COC(c2c(F)cccc2F)=N1 (stereo not shown) [Etoxazole]  hERG (Homo sapiens, UniProt Q12809)          IC50          µM            13.8
10  O=[N+]([O-])c1ccc(Nc2ccccc2)cc1 [4-Nitro-N-phenylaniline]  hERG (Homo sapiens, UniProt Q12809)          IC50          µM            51.3

Sure, the documented IC50 for CC(C)COC(=O)COc1ccc(Cl)cc1Cl [2,4-D-isobutyl] is 43.6

Sure, the documented IC50 for CN1[C@@H]2CC[C@H]1C[C@@H](OC(=O)c1c[nH]c3ccccc13)C2 [Tropisetron] is 12.9

Sure, the documented IC50 for CN(Cc1cc(Br)cc(Br)c1N)C1CCCCC1 [Bromhexine hydrochloride] is 12.5

Sure, the documented IC50 for ClC1=C(Cl)C2(Cl)C3C(Cl)C(Cl)CC3C1(Cl)C2(Cl)Cl (stereo not shown) [Chlordane] is 30.9

Sure, the documented IC50 for CCCCCCCCCCCCc1ccccc1S(=O)(=O)O [Sodium dodecylbenzenesulfonate] is 24.5

Sure, the documented IC50 for CCC(C)(NC(=O)c1cc(Cl)c(C)c(Cl)c1)C(=O)CCl (stereo not shown) [Zoxamide] is 39.1

---

IC50 by entry:
target: UniProt:Q12809
measurement.notes: cell-based
settings: (-LOG10(IC50), µM)
API: value field is a number in µM; no unit string.

molecule	unit.label	IC50
COc1ccc(C(=O)c2ccccc2)c(O)c1 [2-Hydroxy-4-methoxybenzophenone]	µM	43.6
CCCCOC(=O)[C@@H](C)Oc1ccc(Oc2ccc(C(F)(F)F)cn2)cc1 [Fluazifop-P-butyl]	µM	22
O=C1CCCC=CCCCCCCCCCC1 [5-Cyclohexadecen-1-one]	µM	29.2

# evaluate next
Tested system UniProt:Q12809; IC50 recorded for CC1(C)CNC(=NN=C(/C=C/c2ccc(C(F)(F)F)cc2)/C=C/c2ccc(C(F)(F)F)cc2)NC1 [hydramethylnon] was 0.436

---

IC50 by entry:
target: UniProt Q12809
measurement.notes: cell-based
settings: (-LOG10(IC50), µM)
API: value field is a number in µM; no unit string.

These recorded examples may help you get a feel for the data.
> print(dat)
                                   compound  value.reported
1  Cc1cc2c3c(c1)C(c1ccccc1)=N[C@@H](NC(=O)c1ccncc1)C(=O)N3CC2 [CI-1018]            25.5
2  Cc1c(C(=O)NN2CCCCC2)nn(-c2ccc(Cl)cc2Cl)c1-c1ccc(Cl)cc1 [Rimonabant]            3.25
3  Cc1ccc(CCn2c3c(c4cc(Cl)ccc42)CN(C)CC3)cn1 [Dorastine]            15.7
4  O=P(Oc1ccccc1)(Oc1ccccc1)Oc1ccccc1 [triphenyl phosphate]            32.1
5  CCNc1ccc(C(=C2C=CC(=[N+](CC)CC)C=C2)c2ccc(N(CC)CC)cc2)c2ccccc12.[Cl-] [basic blue 7]           0.526

Sure, the documented IC50 for C[C@]12CC[C@H]3[C@@H](CCC4=CC(=O)CC[C@@H]43)[C@@H]1CC[C@@H]2OC(=O)CCc1ccco1 [Nandrolone furylpropionate] is 12

Sure, the documented IC50 for C#CCC1=C(C)C(OC(=O)C2C(C=C(C)C)C2(C)C)CC1=O (stereo not drawn) [prallethrin] is 46.8

Sure, the documented IC50 for CCCC[n+]1ccc(C)cc1 [1-Butyl-4-methylpyridinium chloride] is 43.4

Sure, the documented IC50 for CN(Cc1ccc(C(C)(C)C)cc1)Cc1cccc2ccccc12 [Butenafine] is 12

Sure, the documented IC50 for Cc1cc(-c2ccc(N=Nc3cc(S(=O)(=O)O)c4ccccc4c3N)c(C)c2)ccc1N=Nc1cc(S(=O)(=O)O)c2ccccc2c1N [C.I. Direct Red 2] is 21.2

Sure, the documented IC50 for CCCCCN(CCCCC)C(=O)C(CCC(=O)O)NC(=O)c1ccc(Cl)c(Cl)c1 (stereo not drawn) [Lorglumide sodium] is 9.52

Sure, the documented IC50 for N#Cc1sc2c(=O)c3ccccc3c(=O)c=2sc1C#N [Dithianon] is 30.9

Sure, the documented IC50 for C[N+]1(C)CCC(=C(c2ccccc2)c2ccccc2)CC1 [Diphemanil methylsulfate] is 6.24

Sure, the documented IC50 for C=CCCC(=O)/C=C/C1C(C)=CCCC1(C)C (stereo not drawn) [Allyl Ionone] is 30.9
